Measured IC90, listed per entry.
# target-entity: APOL1 G1 (Homo sapiens, UniProt O14791, I384M/S342G)
# Sequence (O14791 28-398 S342G/I384M): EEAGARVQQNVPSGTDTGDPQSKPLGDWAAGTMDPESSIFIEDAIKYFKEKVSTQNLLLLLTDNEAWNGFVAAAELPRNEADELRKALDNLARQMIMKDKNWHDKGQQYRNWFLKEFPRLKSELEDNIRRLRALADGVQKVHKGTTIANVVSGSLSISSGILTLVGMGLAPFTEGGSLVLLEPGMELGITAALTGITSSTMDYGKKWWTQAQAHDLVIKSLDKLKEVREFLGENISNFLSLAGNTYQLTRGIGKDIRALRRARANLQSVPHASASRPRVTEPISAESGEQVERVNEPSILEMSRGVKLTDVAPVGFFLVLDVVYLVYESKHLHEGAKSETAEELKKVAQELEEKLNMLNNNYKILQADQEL
# experiment: MultiTox-Fluor Multiplex Cytotoxicity Assay, tet-inducible APOL1 G1 T-REx-HEK293 cells
# Type: cell-based
# Parameters: expressed in transfected cells; host or cells: T-REx HEK293, clone G1 DC3.25 (pAAVS1-Puro-APOL1 G1)
# stated-conditions: HEK293, Multi-Tox Assay; APOL1 variant (G0/G1/G2) of the HEK293 cells not given; read-out: Multi-Tox Assay IC90
# Experimental: The MultiTox-Fluor Multiplex Cytotoxicity Assay is a single-reagent-addition, homogeneous, fluorescence assay that measures the number of live and dead cells simultaneously in culture wells. […] The live-cell protease activity is restricted to intact viable cells and is measured using a fluorogenic, cell-permeant peptide glycyl-phenylalanylamino fluorocoumarin (GF-AFC) substrate. […] Assay ready plates from the Global Compound Archive were ordered using template 384_APOL1Cell_DR10n2_50uM_v3. […]

Which IC90 value is on record for Cc1cc2c(s1)C1(CC(C)NC(c3cn(C)nn3)C1)OCC2 (single isomer, unassigned) [Compound 3] ?
< 50 nM

Which IC90 value is on record for C[C@H]1C[C@@]2(C[C@@H](c3cn(Cc4ccccc4S(C)(=O)=O)nn3)N1)OCC(F)(F)c1cc(Cl)sc12 [Compound 347] ?
50 to 500 nM

Data credit: patent EP4810040A2
